For each record, write down the corresponding pEC50.
- Study system: 5-HT2C receptor (Homo sapiens, UniProt P28335)
- Sequence (P28335 33-458): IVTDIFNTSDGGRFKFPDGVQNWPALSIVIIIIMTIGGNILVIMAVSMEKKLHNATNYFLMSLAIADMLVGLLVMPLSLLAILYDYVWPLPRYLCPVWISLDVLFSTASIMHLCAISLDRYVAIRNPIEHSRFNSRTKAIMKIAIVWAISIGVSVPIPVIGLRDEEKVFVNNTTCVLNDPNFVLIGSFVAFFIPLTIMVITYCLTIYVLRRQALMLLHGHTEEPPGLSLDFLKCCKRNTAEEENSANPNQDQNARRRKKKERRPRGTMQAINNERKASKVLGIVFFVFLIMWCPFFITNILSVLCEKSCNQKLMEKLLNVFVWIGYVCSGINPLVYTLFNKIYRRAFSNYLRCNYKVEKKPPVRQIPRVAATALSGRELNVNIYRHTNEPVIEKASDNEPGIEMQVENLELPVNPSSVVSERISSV
- Sequence (P32121 whole entry partner): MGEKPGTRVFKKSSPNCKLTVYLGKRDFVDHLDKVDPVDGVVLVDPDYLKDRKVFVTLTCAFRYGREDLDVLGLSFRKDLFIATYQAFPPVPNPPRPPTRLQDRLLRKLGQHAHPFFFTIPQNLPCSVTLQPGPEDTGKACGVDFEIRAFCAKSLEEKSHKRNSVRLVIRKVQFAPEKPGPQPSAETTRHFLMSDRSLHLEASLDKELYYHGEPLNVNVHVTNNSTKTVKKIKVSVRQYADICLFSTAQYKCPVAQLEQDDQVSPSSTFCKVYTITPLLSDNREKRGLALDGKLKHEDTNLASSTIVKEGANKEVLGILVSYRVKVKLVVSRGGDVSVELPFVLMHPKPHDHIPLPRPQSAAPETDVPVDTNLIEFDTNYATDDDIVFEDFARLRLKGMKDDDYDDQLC
- Assay overview: Human 5-HT2C functional assay (beta-arrestin2 recruitment, U2OS_HTR2C_β-Arrestin cells)
- Protocol conditions: beta-arrestin2 recruitment, U2OS_HTR2C_β-Arrestin cells, 1.5 h incubation; read-out: EC50 5-HT2C (potency in functional assay)
pEC50: −log10 of the molar value.

Prompt: Retrieve pEC50 measured for COc1nc(O[C@H]2CC[C@H](C(F)(F)F)CC2)c(F)cc1CNC(=O)[C@@H]1CCCN1 [Example 11] and print it.
Response: > 7.70

Prompt: Retrieve pEC50 measured for COc1nc(O[C@H]2CC[C@@H](F)CC2)c(F)cc1CNC(=O)[C@@H]1CCCN1C [Example 29] and print it.
Response: > 7.70

Prompt: Retrieve pEC50 measured for COc1nc(OCc2ccccc2)c(F)cc1CNC(=O)[C@@H]1CCCN1 [Example 2] and print it.
Response: > 7.70

Prompt: Retrieve pEC50 measured for COCCCCc1nc(OC)c(CNC(=O)[C@@H]2CCCN2)cc1F [Example 193] and print it.
Response: 6.00 to 6.70
